study_target: T1, orthogonal hCD122 receptor (hoRb), hCD122 with H133D and Y134F (human, UniProt P14784 27-550); further: reference of the scale not given here
T1 sequence: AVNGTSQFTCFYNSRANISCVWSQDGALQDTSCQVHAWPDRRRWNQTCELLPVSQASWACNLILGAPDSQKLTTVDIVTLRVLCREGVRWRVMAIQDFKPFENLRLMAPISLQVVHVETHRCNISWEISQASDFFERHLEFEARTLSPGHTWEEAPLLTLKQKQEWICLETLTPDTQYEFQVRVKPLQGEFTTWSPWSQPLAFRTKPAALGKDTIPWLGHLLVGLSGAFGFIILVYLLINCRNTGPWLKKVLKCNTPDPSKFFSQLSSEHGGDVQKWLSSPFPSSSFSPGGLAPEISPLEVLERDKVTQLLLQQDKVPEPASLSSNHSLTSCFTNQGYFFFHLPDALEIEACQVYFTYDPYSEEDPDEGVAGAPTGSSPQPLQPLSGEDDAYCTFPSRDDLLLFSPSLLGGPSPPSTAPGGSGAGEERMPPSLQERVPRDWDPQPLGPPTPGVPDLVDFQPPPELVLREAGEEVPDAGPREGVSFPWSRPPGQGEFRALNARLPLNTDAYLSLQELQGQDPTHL
protocol_description: cell-based or functional assay
I'd appreciate it if you could supply Relative Proliferation Fold Change 3F8 1:50 values for the items below.
Please reply with the bare figure in fold and do not write the unit itself.

Item under review: R81D, SQVLKA (ligand) APTSSSTKKTQLQLSQLLVLLKAILNGINNYKNPKLTRMLTFKFYMPKKATELKHLQCLEEELKPLEEVLNLAQSKNFHLDPRDLISNINVIVLELKGSETTFMCEYADETATIVEFLNRWITFCQSIISTLT . Reported Relative Proliferation Fold Change 3F8 1:50?
11.5

Then what about the binder ΔH16, S_VLKA (ligand) APTSSSTKKTQLQLSLLVLLKAILNGINNYKNPKLTRMLTFKFYMPKKATELKHLQCLEEELKPLEEVLNLAQSKNFHLRPRDLISNINVIVLELKGSETTFMCEYADETATIVEFLNRWITFCQSIISTLT ?
1.33

Then what about the binder ΔM23, SQVLK- (ligand) APTSSSTKKTQLQLSQLLVLLKILNGINNYKNPKLTRMLTFKFYMPKKATELKHLQCLEEELKPLEEVLNLAQSKNFHLRPRDLISNINVIVLELKGSETTFMCEYADETATIVEFLNRWITFCQSIISTLT ?
2.82

Then what about the binder G27K, SQVLKA (ligand) APTSSSTKKTQLQLSQLLVLLKAILNKINNYKNPKLTRMLTFKFYMPKKATELKHLQCLEEELKPLEEVLNLAQSKNFHLRPRDLISNINVIVLELKGSETTFMCEYADETATIVEFLNRWITFCQSIISTLT ?
7.82

Then what about the binder G27S, SQVLKA (ligand) APTSSSTKKTQLQLSQLLVLLKAILNSINNYKNPKLTRMLTFKFYMPKKATELKHLQCLEEELKPLEEVLNLAQSKNFHLRPRDLISNINVIVLELKGSETTFMCEYADETATIVEFLNRWITFCQSIISTLT ?
24.6

Then what about the binder SQVLMA (ligand) APTSSSTKKTQLQLSQLLVLLMAILNGINNYKNPKLTRMLTFKFYMPKKATELKHLQCLEEELKPLEEVLNLAQSKNFHLRPRDLISNINVIVLELKGSETTFMCEYADETATIVEFLNRWITFCQSIISTLT ?
5.92

Then what about the binder SQVLAA (ligand) APTSSSTKKTQLQLSQLLVLLAAILNGINNYKNPKLTRMLTFKFYMPKKATELKHLQCLEEELKPLEEVLNLAQSKNFHLRPRDLISNINVIVLELKGSETTFMCEYADETATIVEFLNRWITFCQSIISTLT ?
4.29
